Target: T1, recombinant human IL-12 (rhIL-12) (human, UniProt P29459 23-219; P29460 23-328)
T1 sequence (looked up) 1: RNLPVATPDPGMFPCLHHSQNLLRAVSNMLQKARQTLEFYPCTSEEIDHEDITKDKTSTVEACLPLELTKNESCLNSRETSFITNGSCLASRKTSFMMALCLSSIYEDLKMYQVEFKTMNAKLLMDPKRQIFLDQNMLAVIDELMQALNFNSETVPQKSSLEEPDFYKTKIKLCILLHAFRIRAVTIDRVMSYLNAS
T1 sequence (looked up) 2: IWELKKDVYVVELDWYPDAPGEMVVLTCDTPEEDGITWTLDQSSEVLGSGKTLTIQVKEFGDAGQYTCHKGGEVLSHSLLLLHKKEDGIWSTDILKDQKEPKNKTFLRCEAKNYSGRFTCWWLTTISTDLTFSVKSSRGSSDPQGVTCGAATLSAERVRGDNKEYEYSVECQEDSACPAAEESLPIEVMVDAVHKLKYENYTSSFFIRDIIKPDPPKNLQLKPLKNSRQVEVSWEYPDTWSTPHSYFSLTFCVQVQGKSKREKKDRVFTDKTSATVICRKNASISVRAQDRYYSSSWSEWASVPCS
Experiment: cell-based or functional assay
Recorded Endpoint: PHA assay IC50 (M) p70:p40 1:50
Answer format: numeric, M implied, no suffix.

(Q) Please give the documented PHA assay IC50 (M) p70:p40 1:50 of AO3 IgG1 (antibody, V domains shown, IgG1) VH: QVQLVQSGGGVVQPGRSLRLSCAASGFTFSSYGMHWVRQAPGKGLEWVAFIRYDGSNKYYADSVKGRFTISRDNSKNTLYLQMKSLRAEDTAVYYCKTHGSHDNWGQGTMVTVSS VL: SYVLTQPPSVSGTPGQRVTISCSGGRSNIGSNTVKWYQQLPGTAPKLLIYGNDQRPSGVPDRFSGSKSGTSASLAITGVQAEDEADYYCQSYDRGTHPLTMFGTGTKVTVLG
(A) 2.2e-10

(Q) Using known records, supply PHA assay IC50 (M) p70:p40 1:50 for 136-15 (scFv) QVQLVQSGGGVVQPGRSLRLSCAASGFTFSSYGMHWVRQAPGKGLEWVAFIRYDGSNKYYADSVKGRFTISRDNSKNTLYLQMKSLRAEDTAVYYCKTHGSHDNWGQGTMVTVSSSYVLTQPPSVSGTPGQRVTISCSGSRSNIGSNTVKWYQQLPGTAPKLLIYGNDQRPSGVPDRFSGSKSGTSASLAITGVQAEDEADYYCQTYDKGFTGSSVFGTGTKVTVLG
(A) 4e-09

(Q) Report PHA assay IC50 (M) p70:p40 1:50 for 149-6 (scFv) QVQLVQSGGGVVQPGRSLRLSCAASGFTFSSYGMHWVRQAPGKGLEWVAFIRYDGSNKYYADSVKGRFTISRDNSKNTLYLQMKSLRAEDTAVYYCTTHGSHDNWGQGTMVTVSSSYVLTQPPSVSGTPGQRVTISCSGGRSNIVSNTVKWYQQLPGTAPKLLIYGNDQRPSGVPDRFSGSKSGTSASLAITGVQAEDEADYYCQSYDRGFTGSRVFGTGTKVTVLG
(A) 1e-09
